Tested on: Caco-2
assay: cell viability relative to DMSO; higher = less toxic
conditions: 72 h; 1000 nM
outcome measure: cell viability (%)
Return type: number; implicit unit %.

Consider the worked cases shown below.
{"compound": "CC1(C)[C@@H]2C[C@@H](O)[C@@](C)(O)[C@H]1C2 [2,3-cis/exo-pinanediol]", "cell viability [%]": 108}
{"compound": "CC[C@H](CC#N)OC(=O)N[C@@H](C)c1cccc(NC(=O)Nc2ccc(-c3cnco3)c(OC)c2)c1", "cell viability [%]": 54.8}
{"compound": "CS(=O)(=O)c1cccc(CNc2nc(Nc3ccc4c(c3)CCC(=O)N4)ncc2C(F)(F)F)c1", "cell viability [%]": 96.6}

Hello, I am looking for reported cell viability with Caco-2 for `CNCCCCOc1ccccc1Cc1ccccc1` . Could you help? 102

Could you share what cell viability was measured for `Cc1nnc(C[C@@H]2C=C(c3ccc(Cl)cc3)c3ccccc3-n3c(C)nnc32)o1` , tested on Caco-2? 74.8

What reported cell viability corresponds to `O=C(CCCl)NCCc1ccccc1` on Caco-2? 84.5

// map `CCOC(=O)[C@H](CCc1ccccc1)N[C@@H](C)C(=O)N1CCC[C@H]1C(=O)O` to recorded cell viability (system: Caco-2) 102

API: value(readout= cell viability, system= Caco-2, query= `CC(=O)c1cc2c(o1)C(=O)c1ccccc1C2=O` ) 55.8

Can you look up cell viability on Caco-2 for `CCC[C@H](Nc1nc(-c2ccc(NC(=O)NCC)c(OC)c2)ncc1C)c1cccnc1` ? 42.6

Item: CCOc1ccc(-n2c([C@@H](C)N(Cc3cccnc3)C(=O)Cc3ccc(OC(F)(F)F)cc3)nc3ncccc3c2=O)cc1 (racemic) [AMG-487-(+/-)] Test system: Caco-2 Read-out: cell viability Value: ? 101

Record `O=C(NCCCN1CCC2(CC1)OCc1ccccc12)[C@H]1CCCN1Cc1ccccc1` : what is its cell viability with Caco-2? 105

Give Caco-2 cell viability for `Cc1cc(N2CCOCC2)cc2[nH]c(-c3c(NC[C@@H](O)c4cccc(Cl)c4)cc[nH]c3=O)nc12` 76.8

Value wanted: cell viability (Caco-2) of entry `O=C(NC[C@H]1CN(c2ccc(N3CCOCC3=O)cc2)C(=O)O1)c1ccc(Cl)s1` 86.9

Kindly state the measured cell viability obtained for `NC(N)=Nc1nc(CSCC/C(N)=N/S(N)(=O)=O)cs1` with Caco-2. 96.8

Under Caco-2: cell viability value of `Cc1ccc2c(N3CCN(CCc4cccc(N5CCNC5=O)c4)CC3)cccc2n1` ? 101

Given the entry `Cc1ccc(-c2cc(C(F)(F)F)nn2-c2ccc(S(N)(=O)=O)cc2)cc1` , what cell viability was observed with Caco-2? 90.6

* * *

System: U2OS
assay: cell viability relative to DMSO; higher = less toxic
conditions: 72 h; 10 nM
Measured cell viability, listed per entry for reference.
Write your answer as a measured quantity: the number, then the unit.

Below, 3 compounds whose answers are already recorded.
{"compound": "C[C@H]1CC[C@H](n2c3cnccc3c3cnc(Nc4ccc5c(n4)CCN(C(=O)CO)C5)nc32)CC1 [AMG-925]", "cell viability": "100%"}
{"compound": "CC1/C=C/C=C/C=C/C=C/C=C/C=C/C=C/C(OC2O[C@H](C)[C@@H](O)[C@H](N)[C@@H]2O)CC(O)C(C(=O)O)C(O)CC(=O)CC(O)CC(O)CC(O)CC(=O)CCCC(=O)CC(=O)OC1C(C)CC(C)C(O)CC(=O)c1ccc(N)cc1 (stereo partly specified) [candicidin]", "cell viability": "99.9%"}
{"compound": "CCc1oc2ccccc2c1C(=O)c1cc(Br)c(O)c(Br)c1 [benzbromarone]", "cell viability": "94.8%"}

Query the reported cell viability for U2OS; item: `Cn1ncc2c(N3CCOCC3)nc(-c3cccc(O)c3)nc21` 99.6%

For the record O=C(COc1ccc(Cl)cc1)N1CCN(Cc2ccc3c(c2)OCO3)CC1 [fipexide] , what value of cell viability is listed for U2OS? 100%

Record Cc1ccc(S(=O)(=O)NCc2ccccc2)cc1 [BTS] : what is its cell viability with U2OS? 97.4%
